molecular target: dopamine D2 receptor (Rattus norvegicus); construct: homogenized rat striatal brain tissue; from tissue; host or cells: rat striatum (homogenized brain tissue); experiment: Affinity for dopamine D2 receptor (3H-quinpirole, rat striatal homogenate); format: binding; settings: rat striatal brain tissue
Sequence (P61169 whole entry): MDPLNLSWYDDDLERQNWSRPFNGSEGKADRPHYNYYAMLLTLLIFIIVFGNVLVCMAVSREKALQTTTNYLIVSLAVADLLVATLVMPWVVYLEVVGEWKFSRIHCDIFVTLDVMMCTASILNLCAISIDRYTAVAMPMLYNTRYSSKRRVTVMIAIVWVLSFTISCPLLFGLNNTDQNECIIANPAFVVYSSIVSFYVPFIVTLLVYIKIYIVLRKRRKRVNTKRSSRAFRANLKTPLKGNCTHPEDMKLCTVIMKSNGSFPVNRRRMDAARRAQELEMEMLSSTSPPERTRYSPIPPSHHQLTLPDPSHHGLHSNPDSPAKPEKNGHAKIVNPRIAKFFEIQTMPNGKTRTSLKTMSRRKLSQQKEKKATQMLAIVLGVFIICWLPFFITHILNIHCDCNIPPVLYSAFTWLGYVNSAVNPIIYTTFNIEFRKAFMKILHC
property: IC50 (nM)
Respond with the bare value in nM.

Asked: Query IC50 for c1cnc2cc(OCCCNCC3COc4cc5c(cc4O3)OCO5)ccc2c1 (stereo not shown)
Given back: 63
